# System: HCT-116
# assay_procedure: Cytotoxicity against human HCT116 cells after 48 hrs by MTT assay
# Assay type: functional, cell-based
# test_conditions: HCT-116, 48 h
pIC50: recorded values
FYI, pIC50 means -log10 of a concentration in mol per litre.

Answered examples (2):
| smi | pIC50 |
| --- | --- |
| CC(=O)Nc1cc(-c2ccccc2)c(=O)[nH]n1 | 4.81 |
| Nc1cc(-c2ccccc2)c(=O)[nH]n1 | 5.36 |

Next molecule, please.
Prompt: Complete the entry with pIC50 for "Nc1n[nH]c(=O)c2ccccc12"
Response: 4.90

* * *

# measurement_target: Casein kinase I isoform alpha (Sus scrofa, UniProt O19175)
# Sequence (O19175 whole entry, canonical isoform): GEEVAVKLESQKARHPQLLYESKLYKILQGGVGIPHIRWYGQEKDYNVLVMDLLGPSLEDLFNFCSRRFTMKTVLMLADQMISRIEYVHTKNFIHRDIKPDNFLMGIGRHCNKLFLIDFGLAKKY
# assay_procedure: Inhibition of pig brain CK1 using RRKHAAIGpSAYSITA as substrate after 30 mins by scintillation counting analysis in presence of [gamma-33P]ATP
pIC50: −log10 of the molar value.
outcome_measure: pIC50

Answered examples (5):
| smi | pIC50 |
| --- | --- |
| CCCNc1n[nH]c(=O)cc1-c1ccccc1 | < 5.00 |
| O=c1[nH]nc(NCCN2CCCCC2)cc1-c1ccccc1 | < 5.00 |
| O=c1cc(-c2ccccc2)c(NCc2ccccc2)n[nH]1 | < 5.00 |
| CC(C)C(=O)N(C(=O)C(C)C)c1n[nH]c(=O)c2ccccc12 | < 5.00 |
| O=c1[nH]nc(NCCN2CCCCC2)c2ccccc12 | < 5.00 |

Prompt: Complete the entry with pIC50 for "CCCNc1cc(-c2ccccc2)c(=O)[nH]n1"
Response: < 5.00

Prompt: Complete the entry with pIC50 for "Nc1cc(-c2ccccc2)c(=O)[nH]n1"
Response: < 5.00

Prompt: Complete the entry with pIC50 for "O=C(Nc1cc(-c2ccccc2)c(=O)[nH]n1)c1ccccc1"
Response: < 5.00

Prompt: Complete the entry with pIC50 for "O=C(Nc1cc(-c2ccccc2)c(Cl)nn1)c1ccccc1"
Response: < 5.00

Prompt: Complete the entry with pIC50 for "O=C(Cc1ccccc1)N(C(=O)Cc1ccccc1)c1nnc(Cl)c2ccccc12"
Response: < 5.00

Prompt: Complete the entry with pIC50 for "CC(=O)Nc1n[nH]c(=O)cc1-c1ccccc1"
Response: < 5.00

Prompt: Complete the entry with pIC50 for "CC(=O)Nc1n[nH]c(=O)c2ccccc12"
Response: < 5.00
